- targetDesc: T1, 4H570-AA
- T1 chain: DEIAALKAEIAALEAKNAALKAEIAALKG
- protocolNotes: two-hybrid library CCmax;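 further: natural log of median RNA to DNA barcode read ratio; higher means stronger binding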
- experimentalConditions: mean of both orientations
propertyName: interaction score

(1) DEIAALEAKNAALKAKIAALEAKIAALEG [4H485-AA]
(2) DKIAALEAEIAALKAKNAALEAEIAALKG [4H2162-AA]
In: Sorting by interaction score in descending order, would 1 or 2 appear first? Write down the label attached to your selection.
Out: 2
(2: 0.778, 1: -1.69)

(A) DEIAALKAEIAALEAENAALEAKNAALKG [4H536-AA]
(B) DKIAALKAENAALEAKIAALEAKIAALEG [4H2725-AA]
In: From the items above, decide which of A and B has the lower interaction score reading. Write down the label attached to your selection.
Out: B
